tested on: K-562 leukemia; experiment: NCI-60 one-dose screen, 48 h; conditions: 10 µM unless noted
This is part of a sample that, as a whole, favours compounds with a hit. Of some 83,000 tested, about 20% had one in any assay. Active and inactive are the calls of the source. How the source made its calls: active means growth percent below 10; inactive means the rest.
Field 'call' accepts Y = active, N = inactive

So what was the verdict on CC(C(=O)O)n1c(O)c(C=Nc2cccnc2)sc1=S (configuration not stated) in this test? N

// param item: "O=C(NCc1ccccc1O)c1cccc2ccccc12" ; yields the recorded call N

What was the test verdict on "COc1cc(-c2cc(-c3ccc(Nc4ncnc5cc(Cl)ccc45)cc3)nc(N3CCN(C)CC3)n2)cc(OC)c1OC" ? N

What call does the record list for "O=C(N/N=C/c1ccc([N+](=O)[O-])cc1)c1ccc2nc(-c3ccc(Cl)cc3)[nH]c2c1" ? Y

I'd appreciate the recorded outcome for "O=S(=O)(c1ccccc1)N1CCCN(c2nc(-c3ccccc3)nc3nc(-c4ccccc4)oc23)CC1" from this test. N

Recorded call for COc1cc(C2=NN(C(C)=O)C(c3ccc(N(C)C)cc3)C2)cc(OC)c1OC (configuration not stated) ? N

Could you please tell me the result logged for "CCN(CC)c1ccc(/C=N/NC(=O)c2ccc(Nc3ccnc(C(F)(F)F)c3)cc2)c(O)c1" in this assay? N

Assay outcome for "O=C1NC(=Nc2ccc(O)cc2)S/C1=C\c1cccs1" : what was it? N

Each molecule tested received a call. Report the one for "Cc1nc2sc(C(=O)Nc3ccccc3)c(N)c2cc1C(=O)/C=C/c1ccccc1" . N

# fetch the recorded call for "C=CCCC(=O)N1C=CC(=O)[C@H](O)[C@@H]1/C=C/c1ccccc1" here N

For "Clc1nccc2c(-c3csc(-c4c[nH]c5ccccc45)n3)c[nH]c12" , which call appears in the assay record? N

Identify the outcome logged in this assay for the molecule shown: "COc1ccc2cc(-c3cnc4nonc4n3)ccc2c1" N

Please share the test call associated with "C[C@@H]1CC[C@@]2(OC1)O[C@H]1C[C@H]3[C@@H]4CC=C5C[C@@H](O[C@@H]6O[C@H](CO)[C@@H](O[C@@H]7O[C@@H](CO)[C@H](O)[C@H]7O)[C@H](O)[C@H]6O[C@@H]6O[C@@H](C)[C@H](O)[C@@H](O)[C@H]6O)CC[C@]5(C)[C@H]4CC[C@]3(C)[C@H]1[C@@H]2C" . Y

Call for entry "CC1=C(C(=O)n2c3ccccc3c3ccccc32)C(c2cccc([N+](=O)[O-])c2)C(C(=O)n2c3ccccc3c3ccccc32)=C(C)N1" : N

Which outcome did this test record for the molecule "CCCCNC1=C(OCC)C(=O)c2ccccc2C1=O" ? N

Look up the recorded call for "COCCCOc1cc(C[C@@H](C[C@H](N)[C@@H](O)C[C@H](C(=O)NCC(C)(C)C(N)=O)C(C)C)C(C)C)ccc1OC" in this test. N

Recorded test outcome, item "CCCCC(=O)Nc1ncc(Cc2ccccc2Cl)s1" N

Record request — test call for "CN1CCN(Cc2cc(NC(=O)c3cccc(C#Cc4cccc5[nH]nc(N)c45)c3)cc(C(F)(F)F)c2)CC1" Y

Entry COc1cc(OC)cc(C2C(C#N)=C(N)Oc3c2ccc2ccc(O)cc32)c1 (configuration not stated) : call = ? Y

Recorded call for "CCOC(=O)C1=C(C)N=C2SC=C(c3ccccc3)N2[C@H]1c1cn[nH]c1-c1ccc(Cl)cc1" ? N

Given COc1cc2c(c(OC)c1OC)C(=O)CC(c1cccc(NC(=O)c3ccccc3Br)c1)O2 (configuration not stated) , state the outcome it received in this test. N

Could you kindly confirm the outcome this assay logged for CC(=O)N/C(=C1/OC(C(O)C(O)C(O)CO)CN1C)[P+](c1ccccc1)(c1ccccc1)c1ccccc1 (configuration not stated) ? N

Which outcome did this test record for the molecule "COc1ccc(-c2cn(-c3ccc(Cl)cc3)c(SCC(=O)c3ccc([N+](=O)[O-])cc3)n2)cc1" ? N

Give the logged outcome of this assay for the following molecule: COC(=O)C1=C(C)NC(C)=C(C(=O)OCC(C)C)C1c1ccccc1[N+](=O)[O-] (configuration not stated) N

Name the outcome recorded for "O=C1NC(=O)c2c1c1c3ccccc3[nH]c1c1oc3cc(Br)ccc3c21" in the assay. N

// return assay outcome for "O=C1Nc2ccc(F)cc2/C1=N/c1nnc(Sc2ccccc2)s1" N

Which outcome did this test record for the molecule "N#C/C(=C\c1ccc(-c2ccc(Cl)cc2)o1)c1ccc(Cl)cc1" ? N

Assay outcome for "O=C(OC[C@@H]1CO1)c1cccc2c(=O)c3ccccc3[nH]c12" : what was it? Y

GET /call?item= "COc1ccc(OC)c(-c2cn3nc(-c4c[nH]c5ccc(Br)cc45)sc3n2)c1" returns the recorded outcome of this test. Y

# lookup: test call for "C=C1C(=O)O[C@H]2[C@H]1CC/C(CNC(=O)c1cc3ccccc3[nH]1)=C\CC[C@@]1(C)O[C@@H]21" Y

// return assay outcome for "O=C1NC(=C(Cl)Cl)/C(=N/S(=O)(=O)N2CCCCC2)N1" Y

Identify the outcome logged in this assay for the molecule shown: "CCCCCCCCCCCCCCCCOC(=O)c1c(C)[nH]c(/C=C2\N=C(c3ccc[nH]3)C=C2OC)c1C" N

Query: recorded result category for "Cn1cc(-c2nonc2-c2c[nH]c3ccccc23)c2ccccc21" in this test Y

Per the records of this test, what outcome belongs to "C[N+](C)(C/C=C/c1ccccc1)Cc1ccccc1" ? N

// return assay outcome for "COc1ccc(/C=C/C(=O)c2cc3c(N)c(C(=O)Nc4ccccc4C)sc3nc2C)cc1" N

Please indicate how the test categorized "Nc1ccc([N+](=O)[O-])cc1N=C/C=C/c1ccccc1" . N

What did the test return for "CCN(CC)c1ccc(N2C(=O)/C(=C/c3cccs3)SC2=S)cc1" ? N
